tested on: MDA-MB-231 (breast); test: Cell growth inhibition assay (SRB), MDA-MB-231; assay type: cell-based, human; conditions: Homo sapiens; MDA-MB-231; SRB method, 96 hours incubation; read-out: Inhibition of cell growth (IC50, μM) by quinoxaline-piperazine compounds against human cancer cell lines: MDA-MB-231
ASSAY READOUT: IC50

input: Enter reported IC50 observed with MDA-MB-231 (breast) for `COc1cccc(N2CCN(C(=O)Nc3nc4cc(OC)ccc4nc3OC)CC2)c1`
output: > 1 µM

input: Enter reported IC50 observed with MDA-MB-231 (breast) for `COc1ccc2nc(OC)c(NC(=O)N3CCN(c4cccc(Cl)c4)CC3)nc2c1`
output: > 1 µM

input: Enter reported IC50 observed with MDA-MB-231 (breast) for `COc1cccc(N2CCN(C(=O)Nc3nc4ccc(F)cc4nc3OC)CC2)c1`
output: > 1 µM
